Exercise: for every item that follows, state its recorded IC50.
test system: SARS-CoV-2; assay: microbe, parasite or virus in culture; format: cell-based; conditions: Severe acute respiratory syndrome coronavirus 2, Vero C1008; SARS-CoV-2-induced cytopathic effect in Vero E6 cells
Kindly answer with a numeric value in µM, unit omitted.

Output measured IC50 for this item: O=C(O)c1cc(O)c(O)c(O)c1 [Gallic acid, 3,4,5-trihydroxybenzoic acid]
96.4

Output measured IC50 for this item: COc1cc2ccc(=O)oc2cc1O [Scopoletin, 7-hydroxy-6-methoxycoumarin]
17.8

Output measured IC50 for this item: Oc1cc(O)c2c(c1)O[C@H](c1ccc(O)c(O)c1)[C@@H](O)C2 [Catechin, (+)−catechin]
58.6

Output measured IC50 for this item: COc1c(O)cc2oc(=O)ccc2c1OC [Umckalin, 7-hydroxy-5,6-dimethoxycoumarin]
312
